Quick reference for Potency among some molecules
Biological target: Glucocorticoid receptor (Homo sapiens) (UniProt P04150)
Sequence (P04150 whole entry, looked up): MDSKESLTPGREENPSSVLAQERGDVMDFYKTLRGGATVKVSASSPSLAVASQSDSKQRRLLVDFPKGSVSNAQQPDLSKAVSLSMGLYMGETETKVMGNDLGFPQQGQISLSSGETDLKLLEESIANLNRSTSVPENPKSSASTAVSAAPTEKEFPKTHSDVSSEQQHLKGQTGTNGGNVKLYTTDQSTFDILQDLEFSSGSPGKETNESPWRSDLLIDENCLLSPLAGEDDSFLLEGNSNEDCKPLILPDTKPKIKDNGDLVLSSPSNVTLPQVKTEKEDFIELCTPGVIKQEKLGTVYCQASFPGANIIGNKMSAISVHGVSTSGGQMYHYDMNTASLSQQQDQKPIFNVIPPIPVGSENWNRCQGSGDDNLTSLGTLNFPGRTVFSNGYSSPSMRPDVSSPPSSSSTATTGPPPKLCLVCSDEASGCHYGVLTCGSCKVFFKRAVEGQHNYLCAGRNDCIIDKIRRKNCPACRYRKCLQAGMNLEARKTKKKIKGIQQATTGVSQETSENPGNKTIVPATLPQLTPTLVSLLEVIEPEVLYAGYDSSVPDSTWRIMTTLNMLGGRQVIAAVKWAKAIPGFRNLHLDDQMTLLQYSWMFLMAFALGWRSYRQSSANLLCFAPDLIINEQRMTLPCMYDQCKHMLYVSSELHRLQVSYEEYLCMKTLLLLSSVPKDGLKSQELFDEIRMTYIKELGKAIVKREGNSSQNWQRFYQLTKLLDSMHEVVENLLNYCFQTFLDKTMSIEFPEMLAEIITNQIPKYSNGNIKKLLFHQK
Assay: GR-EFC Redistribution (AID 451); also: potency is read from the fitted curve at half-maximal effect
Conditions: CHO-K1 GR-EFC translocation, beta-gal luminescence, 2 h
Experimental: NIH Molecular Libraries Screening Centers Network [MLSCN] NIH Chemical Genomics Center [NCGC] The glucocorticoid receptor (GR) is a cytoplasmic receptor that belongs to the nuclear receptor family of ligand-dependent transcription factors. […] GR-translocation was measured beta-gal enzyme activity using the PathHunter Detection Kit containing cell membrane permeablizing reagent and beta-gal substrate (DiscoveRx, Fremont, CA). […] Read plate in luminescence mode in ViewLux plate reader (PerkinElmer) […]
Activity calls are given as the source filed them. Calls follow the shape of the full dose curve.

[Q] I'd like to know its Potency. The molecule in question is `CN1C[C@H](C(=O)N[C@]2(C)O[C@]3(O)[C@H]4CCCN4C(=O)[C@H](Cc4ccccc4)N3C2=O)C[C@H]2c3cccc4[nH]cc(c34)C[C@@H]21`
[A] > 20.6 µM (inactive)

[Q] I'd like to know its Potency. The molecule in question is `COc1ccc(-c2cc(=O)c3ccc(O)cc3o2)cc1`
[A] > 46 µM (inactive)

[Q] I'd like to know its Potency. The molecule in question is `COc1cc2c(cc1OC)-c1c(OC)c(OC)cc3ccnc(c13)C2=O`
[A] > 46 µM (inactive)

[Q] I'd like to know its Potency. The molecule in question is `CC(=O)O[C@H]1C(=O)[C@]2(C)[C@H]([C@H](OC(=O)c3ccccc3)[C@@]3(O)C[C@H](OC(=O)[C@@H](O)[C@@H](NC(=O)c4ccccc4)c4ccccc4)C(C)=C1C3(C)C)[C@]1(OC(C)=O)CO[C@@H]1C[C@@H]2O`
[A] > 46 µM (inactive)

[Q] I'd like to know its Potency. The molecule in question is `CC(C)C[C@@H](CC(=O)N[C@@H](CCC(=O)O)CC(=O)O)NC(=O)[C@@H]1CCCC[C@H]1NC(=O)C[C@@H](NC(=O)C[C@H](CO)NC(=O)[C@@H]1CNCC[C@H]1N)C(C)C`
[A] > 46 µM (inactive)

[Q] I'd like to know its Potency. The molecule in question is `C[C@H](O)[C@@H]1C(=O)N2C(C(=O)O)=C(SCCN=CN)C[C@@H]12`
[A] > 20.6 µM (inactive)

[Q] I'd like to know its Potency. The molecule in question is `NCCC[C@@H](CC(=O)N[C@@H]1CCCC[C@H]1C(=O)N[C@H](CC(=O)N[C@@H](CCC(=O)O)CC(=O)O)Cc1ccccc1)NC(=O)C[C@H](CO)NC(=O)[C@@H]1CCCC[C@H]1N`
[A] > 46 µM (inactive)

[Q] I'd like to know its Potency. The molecule in question is `O=c1cc(-c2ccccc2O)oc2c(O)c(O)ccc12`
[A] > 46 µM (inactive)

[Q] I'd like to know its Potency. The molecule in question is `CC1CCN(CC[C@@H]2CCCN2S(=O)(=O)c2cccc(O)c2)CC1`
[A] > 46 µM (inactive)

[Q] I'd like to know its Potency. The molecule in question is `O=c1cc(-c2ccc(O)c(O)c2)oc2cccc(O)c12`
[A] > 46 µM (inactive)

[Q] I'd like to know its Potency. The molecule in question is `COc1ccc2c(c1)[C@]1(C)CCC[C@](C)(CO)[C@@H]1CC2`
[A] > 46 µM (inactive)

[Q] I'd like to know its Potency. The molecule in question is `O=C(/C=C\c1ccc(O)c(O)c1)OCCc1ccccc1`
[A] > 46 µM (inactive)

Source: PubChem BioAssay (NCATS)
